Sourced from PubChem BioAssay

test: NIH:OVCAR-3 ovarian cancer cell cytotoxicity, dose response, PAX8 inhibitor project, plate reader, dry powder samples (AID 743044); conditions: NIH:OVCAR-3 ovarian cancer cell viability; at 35 µM, hits give low values unless noted
Entries with a potency or affinity are not part of this list. Results filed as inconclusive are left out. Activity calls are given as the source filed them. How the calls were made is not given here.
QUANTITY MEASURED: max activity

MOLECULAR STRING | QUANTITY MEASURED | RESULT
Cc1ccccc1-c1ccc2c(c1)O[C@H](CN(C)C(=O)Nc1ccc(C(F)(F)F)cc1)[C@H](C)CN([C@H](C)CO)S2(=O)=O | max activity | -27.3% (inactive)
C[C@H](O)C#Cc1ccc2c(c1)O[C@@H](CN(C)Cc1ccc(-c3ccccc3)cc1)[C@@H](C)CN([C@@H](C)CO)S2(=O)=O | max activity | -22.5% (inactive)
